Tested target: T1, recombinant human TIGIT (Sino Biological) (human, UniProt Q495A1 22-138)
T1 construct: Bought protein; NP_776160.2; also called human TIGIT antigen; hTIGIT
T1 sequence: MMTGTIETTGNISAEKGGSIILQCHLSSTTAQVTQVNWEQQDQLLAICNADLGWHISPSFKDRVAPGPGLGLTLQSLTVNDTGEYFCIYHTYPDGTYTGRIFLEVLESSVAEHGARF
Experiment notes: SPR single cycle kinetics; KD divided by KD of the VH0/Vκ0 chimeric antibody;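 note: biacore T200 SPR at 25 °C, IgG captured on anti-human chip, TIGIT analyte in four rising concentrations, 210 s association each, 900 s dissociation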
Listed next: entries and their corresponding Relative KD.

>  <Binder>
7A6 VH5/Vκ2 humanized antibody (human IgG1, kappa) (antibody, V domains shown, Tested as IgG in supernatant of transiently transfected HEK293 EBNA cells) VH: QVQLQESGPGLVKPSQTLSLTCTVTGYSITSDYAWNWIRQPPGKGLEWMGYISYSGSARYNPSLKSRVTISVDTSKNQFSLKLSSVTAADTAVYYCARKGYPAYFAYWGQGTLVTVSS VL: DIVMTQSPSSLSASVGDRVSITCKASQDVSTAVAWYQQKPGQAPRLLIYSASYRYTGVPDRFTGSGSGTDFTLTISSLQAEDVAVYYCQHHYSTPYTFGQGTKLEIKR

>  <Relative KD>
2.55

$$$$
>  <Binder>
7A6 VH4/Vκ3 humanized antibody (human IgG1, kappa) (antibody, V domains shown, Tested as IgG in supernatant of transiently transfected HEK293 EBNA cells) VH: QVQLQESGPGLVKPSQTLSLTCTVTGYSITSDYAWNWIRQPPGKGLEWMGYISYSGSARYNPSLKSRVTISRDTSKNQFSLKLSSVTAADTAVYYCARKGYPAYFAYWGQGTLVTVSS VL: DIQMTQSPSSLSASVGDRVSITCKASQDVSTAVAWYQQKPGQAPRLLIYSASYRYTGVPDRFSGSGSGTDFTLTISSLQAEDVAVYYCQHHYSTPYTFGQGTKLEIKR

>  <Relative KD>
1.45

$$$$
>  <Binder>
7A6 VH5/Vκ5 humanized antibody (human IgG1, kappa) (antibody, V domains shown, Tested as IgG in supernatant of transiently transfected HEK293 EBNA cells) VH: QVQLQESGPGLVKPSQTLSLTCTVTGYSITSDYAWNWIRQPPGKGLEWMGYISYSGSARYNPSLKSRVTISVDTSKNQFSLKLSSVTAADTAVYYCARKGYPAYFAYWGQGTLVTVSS VL: DIQMTQSPSSLSASVGDRVSITCKASQDVSTAVAWYQQKPGQAPRLLIYSASYRYTGVPDRFSGSGSGTDFTLTISSLQPEDFATYYCQHHYSTPYTFGQGTKLEIKR

>  <Relative KD>
1.92

$$$$
>  <Binder>
7A6 VH5/Vκ3 humanized antibody (human IgG1, kappa) (antibody, V domains shown, Tested as IgG in supernatant of transiently transfected HEK293 EBNA cells) VH: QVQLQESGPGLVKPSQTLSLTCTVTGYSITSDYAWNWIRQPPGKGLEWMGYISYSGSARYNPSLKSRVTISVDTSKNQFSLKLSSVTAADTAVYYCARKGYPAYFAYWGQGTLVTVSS VL: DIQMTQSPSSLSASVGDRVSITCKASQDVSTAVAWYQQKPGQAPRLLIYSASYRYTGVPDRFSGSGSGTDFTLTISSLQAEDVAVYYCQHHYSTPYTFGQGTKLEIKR

>  <Relative KD>
2.32

$$$$
>  <Binder>
7A6 VH0/Vκ0 chimeric antibody (human IgG1, kappa) (antibody, V domains shown, Mouse 7A6 variable regions on human IgG1/kappa constant regions; also called VH0/Vk0; 7A6 VH0Vk0) VH: DVQLQESGPGLVKPSQSLSLTCTVTGYSITSDYAWNWIRQFPGNKLEWMGYISYSGSARYNPSLKSRISITRDTSMNQFFLQLNSVTAEDTATYYCARKGYPAYFAYWGQGTLVTVSS VL: DIVMTQSHKFMSTSVGDRVSISCKASQDVSTAVAWYQQKPGQSPELLIYSASYRYTGVPDRFTGSGSGTDFTFTISSVQAEDLAVYYCQHHYSTPYTFGGGTKLEMKR

>  <Relative KD>
1

$$$$
